- protocol.notes: Inhibitory potency against Herpes Simplex virus ribonucleotide reductase
- Design: species or system Herpes simplex virus (type 1 / strain 17)
Non-standard residues stand in square brackets, D forms with d. Residues, ends and D or L forms follow the SMILES beside them. *: point of attachment. Hydrocinnamoyl = O=C(CCc1ccccc1)*; Tle = CC(C)(C)[C@H](N)C(=O)O; Pyrrolidide = C1CCN(*)C1; X2 = CCC(CC)CC(=O)*
Collected pIC50 values appear next to each entry.
Would you please state pIC50, meaning minus log10 of the concentration in mol/L, as a bare number?

Some solved entries appear below for comparison.
* CCC(CC)NC(=O)C[C@H](C(=O)N[C@@H](CC(=O)N1CCCC1)C(=O)N[C@@H](CC(=O)O)C(=O)N[C@@H](CC(C)C)C(=O)O)C(C)(C)C | 8.30
* CCC(CC)CC(=O)N[C@H](C(=O)N[C@@H](CC(=O)N1CCCC1)C(=O)N[C@@H](CC(=O)O)C(=O)N[C@@H](CC(C)C)C(=O)O)C(C)(C)C (X2-[Tle]D(Pyrrolidide)DL-OH) | 6.85

We now examine a further molecule.
For reference, reported pIC50 for CC(C)C[C@H](NC(=O)[C@H](CC(=O)O)NC(=O)[C@H](CC(=O)N1CCCC1)NC(=O)[C@@H](NC(=O)[C@@H](NC(=O)CCc1ccccc1)C(C)C)C(C)(C)C)C(=O)O (Hydrocinnamoyl-V[Tle]D(Pyrrolidide)DL-OH) stands at 8.40

---

- protocol.notes: Inhibitory potency against Herpes Simplex virus ribonucleotide reductase
- Design: species or system Herpes simplex virus (type 1 / strain 17)
pIC50: −log10 of the molar value. Starred links: 1 amine or outer side, 2 acyl side, 3 side chain; linkers in the order of their positions; H or OH if unused. Non-standard residues stand in square brackets, D forms with d. Residues, ends and D or L forms follow the SMILES beside them. *: point of attachment. Asp(3,3-(CH2)4) = N[C@H](C(=O)O)C1(C(=O)O)CCCC1; Dibenzylacetyl = O=C(C(Cc1ccccc1)Cc1ccccc1)*; Hydrocinnamoyl = O=C(CCc1ccccc1)*; tBuAla = CC(C)(C)C[C@H](N)C(=O)O; Tle = CC(C)(C)[C@H](N)C(=O)O; NH(3-pentyl) = CCC(CC)N*; Pyrrolidide = C1CCN(*)C1; CO = O=C([*:1])[*:2]; X1 = CCC(CC)OC(=O)*
Rule: pIC50 of 8 or more gives Y; anything lower gives N.

• CC(C)C[C@H](NC(=O)[C@H](CC(=O)O)NC(=O)[C@H](CC(=O)N1CCCC1)NC(=O)[C@@H](NC(=O)[C@@H](NC(=O)CCc1ccccc1)C(C)C)C(C)C)C(=O)O (Hydrocinnamoyl-VVD(Pyrrolidide)DL-OH) = N
• CCC(CC)NC(=O)N[C@H](C(=O)N[C@@H](CC(=O)N1CCCC1)C(=O)N[C@@H](CC(=O)O)C(=O)N[C@@H](CC(C)C)C(=O)O)C(C)(C)C ({NH(3-pentyl)-CO}-[Tle]D(Pyrrolidide)DL-OH) = Y
• CC(C)C[C@H](NC(=O)[C@H](CC(=O)O)NC(=O)[C@H](CC(N)=O)NC(=O)[C@@H](NC(=O)[C@@H](NC(=O)[C@H](C)NC(=O)CNC(=O)[C@H](C)NC(=O)[C@@H](N)Cc1ccc(O)cc1)C(C)C)C(C)C)C(=O)O = N
• CC(C)C[C@H](NC(=O)[C@@H](NC(=O)[C@H](CC(=O)N1CCCC1)NC(=O)[C@@H](NC(=O)[C@@H](NC(=O)CCc1ccccc1)C(C)C)C(C)C)C1(C(=O)O)CCCC1)C(=O)O (Hydrocinnamoyl-VVD(Pyrrolidide)[Asp(3,3-(CH2)4)]L-OH) = Y
• CC(C)[C@H](NC(=O)CCc1ccccc1)C(=O)N[C@H](C(=O)N[C@@H](CC(=O)N1CCCC1)C(=O)N[C@@H](CC(=O)O)C(=O)N[C@@H](CC(C)(C)C)C(=O)O)C(C)C (Hydrocinnamoyl-VVD(Pyrrolidide)D[tBuAla]-OH) = Y

*Q* Could you tell me if the measured pIC50 of CC(C)C[C@H](NC(=O)[C@H](CC(=O)O)NC(=O)[C@H](CC(=O)N1CCCC1)NC(=O)[C@@H](NC(=O)[C@@H](NC(=O)C(Cc1ccccc1)Cc1ccccc1)C(C)C)C(C)C)C(=O)O (Dibenzylacetyl-VVD(Pyrrolidide)DL-OH) reaches 8 or more?
*A* Y

*Q* Could you tell me if the measured pIC50 of CC(C)C[C@H](NC(=O)[C@H](CC(=O)O)NC(=O)[C@H](CC(N)=O)NC(=O)[C@@H](NC(=O)[C@@H](NC(=O)CCc1ccccc1)C(C)C)C(C)C)C(=O)O reaches 8 or more?
*A* N

*Q* Could you tell me if the measured pIC50 of CCC(CC)OC(=O)N[C@H](C(=O)N[C@@H](CC(=O)N1CCCC1)C(=O)N[C@@H](CC(=O)O)C(=O)N[C@@H](CC(C)C)C(=O)O)C(C)(C)C (X1-[Tle]D(Pyrrolidide)DL-OH) reaches 8 or more?
*A* N

---

- protocol.notes: Inhibitory potency against Varicella zoster virus ribonucleotide reductase
Starred links: 1 amine or outer side, 2 acyl side, 3 side chain; linkers in the order of their positions; H or OH if unused. Non-standard residues stand in square brackets, D forms with d. Residues, ends and D or L forms follow the SMILES beside them. *: point of attachment. Dibenzylacetyl = O=C(C(Cc1ccccc1)Cc1ccccc1)*; Hydrocinnamoyl = O=C(CCc1ccccc1)*; tBuAla = CC(C)(C)C[C@H](N)C(=O)O; Tle = CC(C)(C)[C@H](N)C(=O)O; NH(3-pentyl) = CCC(CC)N*; Pyrrolidide = C1CCN(*)C1; CO = O=C([*:1])[*:2]
Under this convention, yes denotes IC50 strictly below 7000 nM and no denotes IC50 at or above 7000 nM.

* CC(C)[C@H](NC(=O)CCc1ccccc1)C(=O)N[C@H](C(=O)N[C@@H](CC(=O)N1CCCC1)C(=O)N[C@@H](CC(=O)O)C(=O)N[C@@H](CC(C)(C)C)C(=O)O)C(C)C (Hydrocinnamoyl-VVD(Pyrrolidide)D[tBuAla]-OH) | no
* CC(C)C[C@H](NC(=O)[C@H](CC(=O)O)NC(=O)[C@H](CC(=O)N1CCCC1)NC(=O)[C@@H](NC(=O)[C@@H](NC(=O)CCc1ccccc1)C(C)C)C(C)C)C(=O)O (Hydrocinnamoyl-VVD(Pyrrolidide)DL-OH) | yes
* CC(C)C[C@H](NC(=O)[C@H](CC(=O)O)NC(=O)[C@H](CC(=O)N1CCCC1)NC(=O)[C@@H](NC(=O)[C@@H](NC(=O)CCc1ccccc1)C(C)C)C(C)(C)C)C(=O)O (Hydrocinnamoyl-V[Tle]D(Pyrrolidide)DL-OH) | yes

*Q* Does this compound meet the criterion IC50 < 7000 nM? CC(C)C[C@H](NC(=O)[C@H](CC(=O)O)NC(=O)[C@H](CC(N)=O)NC(=O)[C@@H](NC(=O)[C@@H](NC(=O)CCc1ccccc1)C(C)C)C(C)C)C(=O)O
*A* no

*Q* Does this compound meet the criterion IC50 < 7000 nM? CCC(CC)NC(=O)N[C@H](C(=O)N[C@@H](CC(=O)N1CCCC1)C(=O)N[C@@H](CC(=O)O)C(=O)N[C@@H](CC(C)C)C(=O)O)C(C)(C)C ({NH(3-pentyl)-CO}-[Tle]D(Pyrrolidide)DL-OH)
*A* yes

*Q* Does this compound meet the criterion IC50 < 7000 nM? CC(C)C[C@H](NC(=O)[C@H](CC(=O)O)NC(=O)[C@H](CC(=O)N1CCCC1)NC(=O)[C@@H](NC(=O)[C@@H](NC(=O)C(Cc1ccccc1)Cc1ccccc1)C(C)C)C(C)C)C(=O)O (Dibenzylacetyl-VVD(Pyrrolidide)DL-OH)
*A* yes

---

- protocol.notes: Inhibitory potency against Varicella zoster virus ribonucleotide reductase
Non-standard residues stand in square brackets, D forms with d. Residues, ends and D or L forms follow the SMILES beside them. *: point of attachment. Asp(3,3-(CH2)4) = N[C@H](C(=O)O)C1(C(=O)O)CCCC1; Hydrocinnamoyl = O=C(CCc1ccccc1)*; NMeV = CN[C@H](C(=O)O)C(C)C; Pyrrolidide = C1CCN(*)C1
Collected IC50 values appear next to each entry.
State the answer as a number, implicitly in nM.

Some solved entries appear below for comparison.
* CC(C)C[C@H](NC(=O)[C@H](CC(=O)O)NC(=O)[C@H](CC(=O)N1CCCC1)NC(=O)[C@@H](NC(=O)[C@H](C(C)C)N(C)C(=O)CCc1ccccc1)C(C)C)C(=O)O (Hydrocinnamoyl-[NMeV]VD(Pyrrolidide)DL-OH) | 210
* CC(C)C[C@H](NC(=O)[C@@H](NC(=O)[C@H](CC(=O)N1CCCC1)NC(=O)[C@@H](NC(=O)[C@@H](NC(=O)CCc1ccccc1)C(C)C)C(C)C)C1(C(=O)O)CCCC1)C(=O)O (Hydrocinnamoyl-VVD(Pyrrolidide)[Asp(3,3-(CH2)4)]L-OH) | 37

For reference, reported IC50 for CCC(CC)NC(=O)C[C@H](C(=O)N[C@@H](CC(=O)N1CCCC1)C(=O)N[C@@H](CC(=O)O)C(=O)N[C@@H](CC(C)C)C(=O)O)C(C)(C)C stands at 3500
